Assay: protein stability index of a GFP-peptide fusion (yeast GPS) (PSI 1-4); higher = more stable; sorted into four equal gates, so the index is relative within each strain
Conditions: doa10∆
parameter-measured: protein stability index
Reply with the value as a number alone.

Query block: Which protein stability index is reported for this sequence? LLVPASDLINKDLVKNN [FAS1]
Result block: 1.76

Query block: Which protein stability index is reported for this sequence? INYAFSMDEEFKNMDCI [SIR3]
Result block: 3.21

Query block: Which protein stability index is reported for this sequence? FDDSSRIVNHKTKLWGF [LIN1]
Result block: 3.09

Query block: Which protein stability index is reported for this sequence? TQHKVTQYKAGKASLFA [RPL42A]
Result block: 3.29

Query block: Which protein stability index is reported for this sequence? TKIAQSQTMAETYVASY [ECM29]
Result block: 1.92

Query block: Which protein stability index is reported for this sequence? NELLKCKDDVQLQKILE [MTW1]
Result block: 2.97

Query block: Which protein stability index is reported for this sequence? TIITDCAFLLTKIKDAE [YJL039C/NUP192]
Result block: 2.52

Query block: Which protein stability index is reported for this sequence? LQILAMLLLNIFISSDH [YMR129W/POM152]
Result block: 1.72

Query block: Which protein stability index is reported for this sequence? DAKKARFWSFMKTQRFV [SIR4]
Result block: 2.6

Query block: Which protein stability index is reported for this sequence? LKIIHDTFRWVGKKSAP [RPO31]
Result block: 2.51

Query block: Which protein stability index is reported for this sequence? ERKLKFSNRFLPVASPF [FAS1]
Result block: 3.02

Query block: Which protein stability index is reported for this sequence? DVCKTRFNHLVTRLFFI [YML031W/NDC1]
Result block: 1.79

Query block: Which protein stability index is reported for this sequence? RNFSLAIIDKNTGLTFK [PRE4]
Result block: 3.14

Query block: Which protein stability index is reported for this sequence? RNKRAVQLPILKIIYTG [YJL039C/NUP192]
Result block: 1.6

Query block: Which protein stability index is reported for this sequence? IPPTFDKGAVGPNNFIW [MED4]
Result block: 3.22

Query block: Which protein stability index is reported for this sequence? YSTIRQLVYKRGFGKIN [RPL7A]
Result block: 2.34

Query block: Which protein stability index is reported for this sequence? TKTPGPGGQAALRALAR [RPS14A]
Result block: 2.64

Query block: Which protein stability index is reported for this sequence? HYGNEHIRRMVPLAMGI [RPN1]
Result block: 1.29

Query block: Which protein stability index is reported for this sequence? KTKTSLLPTIKRTICKK [RPR2]
Result block: 3.27

Query block: Which protein stability index is reported for this sequence? MFHGAKGPLLIERIGHL [PCI8]
Result block: 2.5

Query block: Which protein stability index is reported for this sequence? DDYEDQDDDDYVDTATA [IRR1]
Result block: 3.14

Query block: Which protein stability index is reported for this sequence? ILEEGSSGMGAFGGSGG [RPN10]
Result block: 3.36

Query block: Which protein stability index is reported for this sequence? NFLDNCLFENDLQRLKP [ITC1]
Result block: 2.61

Query block: Which protein stability index is reported for this sequence? IFWGIRLAKSTENEIPN [BRR2]
Result block: 1.42

Query block: Which protein stability index is reported for this sequence? QMSLEANVVDITNDWEQ [YJR042W/NUP85]
Result block: 2.65

Query block: Which protein stability index is reported for this sequence? TKTRKHRGHVSAGKGRI [RPL28]
Result block: 1.91

Query block: Which protein stability index is reported for this sequence? YDTQLKVSPEELPLVIT [ARP7]
Result block: 2.6

Query block: Which protein stability index is reported for this sequence? QPKGVILYGPPGTGKTL [RPT6]
Result block: 3.47

Query block: Which protein stability index is reported for this sequence? VLNMLYWVPDWDGVIPT [RPO21]
Result block: 2.92

Query block: Which protein stability index is reported for this sequence? FRTVKEMVKDRGYFITQ [RPB5]
Result block: 2.52

Query block: Which protein stability index is reported for this sequence? NLTDEGYQWGEENKDIM [PRP8]
Result block: 2.81

Query block: Which protein stability index is reported for this sequence? PFTDITVEGISKLLREH [RPB2]
Result block: 2.27

Query block: Which protein stability index is reported for this sequence? NPLADAEEALEPSYIFE [PRE4]
Result block: 3.09

Query block: Which protein stability index is reported for this sequence? DHIAIDWEDEEKYEDED [DSN1]
Result block: 2.52

Query block: Which protein stability index is reported for this sequence? KTARGKAALERLKVFEG [RPL16A]
Result block: 2.28

Query block: Which protein stability index is reported for this sequence? SQPFIKFLNFRPPNGIK [SSN2]
Result block: 2.65

Query block: Which protein stability index is reported for this sequence? MSSNTSSVMSSPRVEKR [YOR098C/NUP1]
Result block: 3.18

Query block: Which protein stability index is reported for this sequence? TRSNPPFKRKMLLVDII [REC8]
Result block: 1.9

Query block: Which protein stability index is reported for this sequence? DRRAQRVAEKRDALLKE [RPL19A]
Result block: 3.19

Query block: Which protein stability index is reported for this sequence? GIQEVVHNTNSFIISSL [NUT1]
Result block: 2.12

Query block: Which protein stability index is reported for this sequence? AVKLGDLKKFTSTITKY [RPN3]
Result block: 2.1

Query block: Which protein stability index is reported for this sequence? SYANLPGTITHGMFSSA [FAS1]
Result block: 2.64

Query block: Which protein stability index is reported for this sequence? FDVMIDEESLVKYMPEQ [RPO21]
Result block: 2.3

Query block: Which protein stability index is reported for this sequence? NAVISHANAAAVYFADT [SIN4]
Result block: 2.03

Query block: Which protein stability index is reported for this sequence? FTRPLFVLLEIEPVTKV [YCS4]
Result block: 1.94

Query block: Which protein stability index is reported for this sequence? TDGADENVQIGEDFMEV [SRB4]
Result block: 2.66

Query block: Which protein stability index is reported for this sequence? NNQQRLLLKKLDNFQKS [SMC3]
Result block: 2.55

Query block: Which protein stability index is reported for this sequence? LSEDVNLETLVTTKDDL [RPT2]
Result block: 3.01

Query block: Which protein stability index is reported for this sequence? FPWLNAIKYRPTSVKLL [POP3]
Result block: 2.1

Query block: Which protein stability index is reported for this sequence? DHTVDEIDHVEYYVMMD [SRB8]
Result block: 3.01

Query block: Which protein stability index is reported for this sequence? NLVKEKEALQNNIFKEF [SMC1]
Result block: 3.51

Query block: Which protein stability index is reported for this sequence? KKLLEVHDIFSKIFNES [CDC53]
Result block: 2.84

Query block: Which protein stability index is reported for this sequence? DPSMDPELAMALRLSME [RPN10]
Result block: 2.98

Query block: Which protein stability index is reported for this sequence? QMSDKHATVVPPEEFSN [SRB7]
Result block: 2.98

Query block: Which protein stability index is reported for this sequence? FGWLLSDNSVSVRLQVT [IRR1]
Result block: 1.26

Query block: Which protein stability index is reported for this sequence? DTLDSKSNGSSDDDNIG [ISW2]
Result block: 3.26

Query block: Which protein stability index is reported for this sequence? AEQPLPVSPLDIYSDEA [RPS2]
Result block: 2.79

Query block: Which protein stability index is reported for this sequence? NFKMLVLLATWNLEKWR [IRR1]
Result block: 1.32

Query block: Which protein stability index is reported for this sequence? FDMTNHYNDSQQLRTWK [SRB8]
Result block: 2.99

Query block: Which protein stability index is reported for this sequence? RLNENKKIGCYMFANLE [CSN12]
Result block: 2.76
